System: HCC 2998
Assay: NCI tumour cell line growth inhibition, 48 h
Calls of active or inactive are those of the source. No stated cut-off is given here; in the data, active = GI50 up to about 1.1 µM and inactive = higher.
Answer with one of the outcomes active, inactive

Look over these answered cases.
[
  {
    "MOLECULE": "COC(=O)C1=COC(C)C2C[n+]3ccc4c([nH]c5ccccc54)c3CC12 (centres undefined)",
    "CATEGORY LABEL": "inactive"
  },
  {
    "MOLECULE": "CCCCCCCCCCCCCC1CCC(CC)N1 (centres undefined)",
    "CATEGORY LABEL": "inactive"
  },
  {
    "MOLECULE": "Brc1c2nc3ccccc3nc2n2ccc3ccccc3c12",
    "CATEGORY LABEL": "inactive"
  },
  {
    "MOLECULE": "Cc1n[nH]c(N)c1C(N)=O",
    "CATEGORY LABEL": "inactive"
  },
  {
    "MOLECULE": "COc1ccccc1N1CCN(CCCNC(=O)c2cc(Cl)c(N)c(Cl)c2)CC1",
    "CATEGORY LABEL": "inactive"
  }
]

Call for entry `Cc1cccc2c1C(=O)[C@@](C)([C@]1(C)Nc3cccc(C)c3C1=O)N2` : inactive

----------
Test system: HCC 2998
Experiment: NCI tumour cell line growth inhibition, 48 h
The source made the active and inactive calls. No stated cut-off is given here; in the data, active = GI50 up to about 1.1 µM and inactive = higher.
Answer with one of the outcomes T (active), F (inactive)

[
  {
    "MOLECULE": "CO[C@@H]1C=C[C@@]23c4cc5c(cc4CN(C[C@@H]2O)[C@H]3C1)OCO5 [(+)-HAEMANTHAMINE]",
    "SYSTEM": "HCC 2998",
    "CATEGORY LABEL": "F"
  }
]

Call for entry `N=C(N)NS(=O)(=O)c1ccc(/N=N/c2c(O)c(C(=O)O)cc3ccccc23)cc1` : F

Call for entry `O=C(CN1CCN(c2ccccn2)CC1)N1CCCn2c1nc1ccccc1c2=O` : F

Call for entry CC1=CC2C3(C)C(C)(C(C)=CP3(=O)c3c(C(C)C)cc(C(C)C)cc3C(C)C)C1P2(=O)c1c(C(C)C)cc(C(C)C)cc1C(C)C (stereo not given) : F

Call for entry `CC(=O)/C(=C\c1ccco1)C(=O)Nc1ccccc1` : F

Call for entry COc1ccc2c(c1)O[C@@H]1[C@@H](OC3OC(CO)C(O)C(O)C3O)Oc3cc(OC)c(OC)cc3[C@]1(O)C2=O (stereo not given in full) : F

Call for entry `COc1cc2c(c(O)c1OC)C(=O)[C@@H]1CCC(=O)N1C2` : F

----------
Test system: RXF 393
Experiment: NCI tumour cell line growth inhibition, 48 h
The source made the active and inactive calls. Rule as the data show it: active = GI50 up to about 1.1 µM and inactive = higher.
Answer with one of the outcomes 1 (active), -1 (inactive)

[
  {
    "MOLECULE": "CN(C)CCNC(=O)C(C)(C)Oc1ccc(C(=O)c2ccc(Cl)cc2)cc1Cl",
    "CATEGORY LABEL": -1
  }
]

Call for entry `O=C(O)[C@@H]1CCS(=O)(=O)N1` : -1

Call for entry CC(SC1=CC(=O)c2c(Cl)ccc(O)c2C1=O)C(=O)O (configuration not stated) : -1

Call for entry `NNc1ccccc1Cl` : -1

Call for entry `Cc1n[nH]c(N)c1C(N)=O` : -1

Call for entry COc1cc(C2C(Cl)C(=O)N2NC(=O)c2ccc(NC(C)=O)cc2OC)ccc1O (configuration not stated) : -1

Call for entry `CC(=O)N[C@@H](Cc1ccc(O)cn1)C(=O)NCc1ccc(Cl)cc1` : -1

Call for entry O=C(O)C1C(C(=O)O)C(C(=O)O)C1C(=O)O (configuration not stated) : -1

Call for entry `OC(c1ccc(Cl)cc1)(c1ccc(Cl)cc1)c1cncnc1` : -1

Call for entry O=C1C=C2S[C@H]3C[C@]2(C=C1Br)C1=C(N3)C(=O)c2[nH]cc3c2C1=NCC3 [(+)-DISCORHABDIN B] : 1

Call for entry NC(=O)CC(N)C(N)=O (configuration not stated) : -1

Call for entry N#C/C(=C1\OC(=N)C(c2ccccc2)C1=O)c1ccccc1 (configuration not stated) : -1

Call for entry CCOC(=O)[C@@]12C3C=CC(CC3)[C@]1(C(=O)c1ccccc1)C(=O)C(=O)N2c1ccccc1 (some centres not stated) : -1

Call for entry `Cc1cc2[nH]c3c(C#N)c(-c4ccccc4)c(/N=N/c4ccc(F)cc4)c(=O)n3c2cc1C` : -1

Call for entry CC(=O)OCc1ccc2c(c1)C(O)NC(=O)O2 (configuration not stated) : -1

Call for entry `COc1cc2c(cc1OC)C(CCN)=NCC2` : -1

Call for entry `CC(=O)/C(=C\c1ccco1)C(=O)Nc1ccccc1` : -1

Call for entry `CCCCN/C(=N\C#N)N(Cc1ccccc1)Cc1ccccc1` : -1

Call for entry NCC1(N2CCOCC2)C2CCCC21CNc1ccccc1 (configuration not stated) : -1

Call for entry Oc1ccccc1C(c1cc2c(cc1O)OCO2)N1CCOCC1 (configuration not stated) : -1

Call for entry C=CC(c1ccccc1)C1(O)c2cccc(O)c2C(=O)c2c(O)cccc21 (configuration not stated) : -1

Call for entry CCCCCCCCCCCCCC1CCC(CC)N1 (configuration not stated) : -1

Call for entry COC(NC(N)=O)C(=O)O (configuration not stated) : -1

Call for entry S=C(S)NCC1CCC(CNC(=S)S)CC1 (configuration not stated) : -1

----------
Test system: M14
Assay: NCI tumour cell line growth inhibition, 48 h
The source made the active and inactive calls. Rule as the data show it: active = GI50 up to about 1.1 µM and inactive = higher.
Item-by-item account of GI50

Known results for compounds:
[
  {
    "COMPOUND": "COc1ccc2nccc(/C=C/c3ccc(N(C)C)cc3)c2c1",
    "OBSERVED PROPERTY": "GI50",
    "RESULT": "> 10 µM (inactive)"
  },
  {
    "COMPOUND": "O=C1N[C@H](C(=O)O)[C@@H](c2ccc(OCc3ccccc3)cc2)O1",
    "OBSERVED PROPERTY": "GI50",
    "RESULT": "> 100 µM (inactive)"
  },
  {
    "COMPOUND": "Cc1cc2c(cc1Cl)SC(NNc1ccc([N+](=O)[O-])cc1)=NS2(=O)=O",
    "OBSERVED PROPERTY": "GI50",
    "RESULT": "> 10 µM (inactive)"
  }
]

Moving on to another compound below.
Recorded GI50 of COc1cc(C2C(Cl)C(=O)N2NC(=O)c2ccc(NC(C)=O)cc2OC)ccc1O (stereo not given) , please. 16.3 µM (inactive)

----------
Test system: OVCAR-3
Assay: NCI tumour cell line growth inhibition, 48 h
The source made the active and inactive calls. Cut-off read from the data, not from the text of the source: active = GI50 up to about 1.1 µM and inactive = higher.
Answer with one of the outcomes 1.0 for active, 0.0 for inactive

[
  {
    "MOLECULE": "O=[N+]([O-])/C(C(Cl)=C(Cl)Cl)=C(\\SCc1ccccc1)N1CCCCC1",
    "CATEGORY LABEL": 0.0
  },
  {
    "MOLECULE": "NCCCNOCCCN",
    "CATEGORY LABEL": 0.0
  },
  {
    "MOLECULE": "COc1cccc(C2c3cc4c(cc3OC(N3CCCCC3)C2C)OCO4)c1OC (configuration not stated)",
    "CATEGORY LABEL": 0.0
  },
  {
    "MOLECULE": "OCC1OC(c2ccccc2)CC1O (configuration not stated)",
    "CATEGORY LABEL": 0.0
  },
  {
    "MOLECULE": "O=C1/C(=C/c2ccc(Br)s2)NC(=S)N1CN1CCOCC1",
    "CATEGORY LABEL": 0.0
  },
  {
    "MOLECULE": "Brc1c2nc3ccccc3nc2n2ccc3ccccc3c12",
    "CATEGORY LABEL": 0.0
  },
  {
    "MOLECULE": "O=C(CC(=O)N(C(=O)c1ccccc1)c1ccc(Cl)cc1)N/N=C\\c1ccccc1O",
    "CATEGORY LABEL": 0.0
  },
  {
    "MOLECULE": "COC1/C=C/C(C)C(OC)CC(O)/C=C/C(C)C(C(C)C(OC)C(C)CCC(=O)C(C)C(C/C=C/N(C)C=O)OC)OC(=O)/C=C/C=C(\\C)CC(OC)CC2=CC(=O)O[C@@H](C(C)C(OC)C1)[C@H]2O (some centres not stated)",
    "CATEGORY LABEL": 1.0
  },
  {
    "MOLECULE": "COc1cccc2cc(C(=O)O)c(=O)oc12",
    "CATEGORY LABEL": 0.0
  },
  {
    "MOLECULE": "O=[N+]([O-])c1ccc2nc(O)c(/C=C(\\O)c3ccccc3)nc2c1",
    "CATEGORY LABEL": 0.0
  }
]

Call for entry `CC(=O)O[C@H]1C(=O)[C@@]2(C)[C@H]([C@H](OC(=O)c3ccccc3)[C@]3(O)C[C@H](OC(=O)[C@H](O)[C@@H](NC(=O)c4ccccc4)c4ccccc4C)C(C)=C1C3(C)C)[C@]1(OC(C)=O)CO[C@@H]1C[C@@H]2O` : 1.0

Call for entry CO[C@@H]1C=C[C@@]23c4cc5c(cc4CN(C[C@@H]2O)[C@H]3C1)OCO5 [(+)-HAEMANTHAMINE] : 0.0
